System: hippocampal neurogenesis (Dentate Gyrus)
PROCEDURE SUMMARY: in vivo neurogenesis assay (BrdU+ cells in dentate gyrus)
Set-up: species or system mice
SETUP CONDITIONS: living mice; vehicle (DMSO) 7.3
Source text: The screen was simple in concept. With help from chemists in the Department of Biochemistry at UTSWMC, we selected 1,000 druglike chemicals from the 250,000 compounds in our high throughput screening center. The compounds were selected to preserve representative chemical diversity of the entire library. They were further selected to enhance the representation of chiral molecules, and to avoid untoward chemical properties such as reactive moieties. […]
MEASURED PROPERTY: Neurogenesis # BrdU+ Cells (X10E06)/mm3 Dentate Gyrus

COc1ccc(OCC2(Cn3c4ccc(Br)cc4c4cc(Br)ccc43)NN2)cc1 :: 11.9 (X10E06)/mm3
NCC(O)Cn1c2ccc(Br)cc2c2cc(Br)ccc21 (centres unmarked) :: 12.7 (X10E06)/mm3
OC(CNc1ccccn1)Cn1c2ccc(Br)cc2c2cc(Br)ccc21 (centres unmarked) :: 13.7 (X10E06)/mm3
COc1ccc(OCC(O)Cn2c3ccc(Br)cc3c3cc(Br)ccc32)cc1 (centres unmarked) :: 12.0 (X10E06)/mm3
Oc1ccc(SCC(O)Cn2c3ccc(Br)cc3c3cc(Br)ccc32)cc1 (centres unmarked) :: 8.4 (X10E06)/mm3

Please go through the list and note Neurogenesis # BrdU+ Cells (X10E06)/mm3 Dentate Gyrus for each compound.
1. Cc1cc(Br)cc2c3cc(Br)cc(C)c3n(CC(O)CNc3ccccc3)c12 (centres unmarked)
2. COc1cccc(N(CC(O)Cn2c3ccc(Br)cc3c3cc(Br)ccc32)S(=O)(=O)C(F)(F)F)c1 (centres unmarked)
3. O[C@@H](COc1ccccc1)Cn1c2ccc(Br)cc2c2cc(Br)ccc21

1. 11.4 (X10E06)/mm3
2. 11.6 (X10E06)/mm3
3. 8.1 (X10E06)/mm3

Please go through the list and note Neurogenesis # BrdU+ Cells (X10E06)/mm3 Dentate Gyrus for each compound.
1. OC(CN1c2ccccc2CCc2ccccc21)CN1c2ccccc2CCc2ccccc21
2. OC(CSc1ccccc1)Cn1c2ccc(Br)cc2c2cc(Br)ccc21 (centres unmarked)
3. CCOC(=O)C1=NCc2c(c3ccccc3n2S(=O)(=O)c2ccc(C)cc2)N1
4. O=C(COc1ccc(SCC(O)Cn2c3ccc(Br)cc3c3cc(Br)ccc32)cc1)NCc1ccccc1 (centres unmarked)
5. NC(=O)c1ccc2c(c1)c1cc(Br)ccc1n2CC(=O)O
6. Cc1ccc2c(c1)c1c(n2CC(O)CNc2ccccc2)CCN(C)C1 (centres unmarked)
7. O=C(O)CCc1c[nH]c2ccccc12

1. 11.2 (X10E06)/mm3
2. 15.5 (X10E06)/mm3
3. 15.6 (X10E06)/mm3
4. 7.6 (X10E06)/mm3
5. 9.4 (X10E06)/mm3
6. 9.2 (X10E06)/mm3
7. 10.8 (X10E06)/mm3

----------
EXPERIMENTAL SYSTEM: p70 (NAMPT) (Homo sapiens, UniProt P43490)
Construct: endogenous in cells; host or cells: H2122 lung cancer cells
Sequence (P43490 whole entry): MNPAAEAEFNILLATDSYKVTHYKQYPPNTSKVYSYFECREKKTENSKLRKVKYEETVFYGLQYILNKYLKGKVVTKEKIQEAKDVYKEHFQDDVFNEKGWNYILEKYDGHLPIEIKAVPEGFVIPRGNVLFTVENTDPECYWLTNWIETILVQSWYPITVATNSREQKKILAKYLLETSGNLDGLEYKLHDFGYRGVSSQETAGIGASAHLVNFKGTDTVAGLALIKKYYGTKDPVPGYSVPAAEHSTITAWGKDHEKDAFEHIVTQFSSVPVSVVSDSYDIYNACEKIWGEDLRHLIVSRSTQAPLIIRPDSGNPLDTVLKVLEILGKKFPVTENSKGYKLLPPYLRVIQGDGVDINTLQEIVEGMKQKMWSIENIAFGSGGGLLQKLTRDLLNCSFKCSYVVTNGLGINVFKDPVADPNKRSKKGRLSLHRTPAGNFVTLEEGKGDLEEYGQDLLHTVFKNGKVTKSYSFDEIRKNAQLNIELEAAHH
PROCEDURE SUMMARY: binding competition for photo-crosslinking of P7C3-S326 to p70 in H2122 cells
SETUP CONDITIONS: 0.3 μM P7C3-S326 plus 5 μM competitor, p70 band intensity, P7C3-S326 alone compared with plus competitor, vehicle 1.0
MEASURED PROPERTY: Binding competition
Numbers only.

# count of solved cases: 3
OC(COc1ccccc1)Cn1c2ccc(Br)cc2c2ncccc21 (stereo not drawn) :: 5.1
O=C(COc1ccc(NCC(F)Cn2c3ccc(Br)cc3c3cc(Br)ccc32)cc1)NCCO (stereo not drawn) :: 3.1
Fc1ccc([C@@H]2CCNC[C@H]2COc2ccc3c(c2)OCO3)cc1 [S120, Paxil, reference compound] :: 1.3

Please go through the list and note Binding competition for each molecule.
1. O=C(O)c1ccc2c(c1)c1cc(Br)ccc1n2CC(O)COc1ccccc1 (stereo not drawn)
2. NC(=O)Cn1c2ccc(Br)cc2c2cc(Br)ccc21
3. Cc1cc(C)n(CC(O)Cn2c3ccc(Br)cc3c3cc(Br)ccc32)n1 (stereo not drawn)
4. FC(COc1ccccc1)Cn1c2ccc(Br)cc2c2cc(Br)ccc21 (stereo not drawn)

1.4
1.1
1.4
1.7

Please go through the list and note Binding competition for each molecule.
1. CNCCC=C1c2ccccc2CCc2ccccc21.Cl [S89, Nortriptyline, reference compound]
2. OC(CCc1ccccc1)Cn1c2ccc(Br)cc2c2cc(Br)ccc21 (stereo not drawn)

1.3
2.3
